Test system: ORYSAT (Rice, Tebonnet)
Assay: Preemergence herbicidal evaluation
Assay type: in vivo, Oryza sativa, (L.) Tebonnet
Conditions: rate 0.0625 kg/ha; rated 4-5 weeks after treatment
test readout: Preemergence herbicidal rating ORYSAT
Please reply with the value in numeric form only.

Sample records with Preemergence herbicidal rating ORYSAT:
{"columns": ["molecule", "Preemergence herbicidal rating ORYSAT"],
 "data": [
  ["COC(=O)[C@H](Cc1ccc([N+](=O)[O-])cc1)N1C(=O)CSC1=Nc1cc(-n2c(=O)cc(C(F)(F)F)n(C)c2=O)c(F)cc1Cl [Compound 78]", 0.0],
  ["CCOC(=O)CN1C(=O)CSC1=Nc1cc(N2C(=O)C3=C(CCCC3)C2=O)c(F)cc1Cl [Compound 47]", 0.0],
  ["CCOC(=O)CN1C(=O)C(CC(=O)O)O/C1=N/c1cc(-n2c(=O)cc(C(F)(F)F)n(C)c2=O)c(F)cc1Cl (stereo not shown) [Compound 41]", 0.0]
]}

May I ask what Preemergence herbicidal rating ORYSAT has been recorded for O=C(O)CC1SC(=Nc2cc(N3C(=O)C4=C(CCCC4)C3=O)c(F)cc2Cl)N(CC(=O)O)C1=O (stereo not shown) [Compound 48] ?
0.0

What does the data say about its Preemergence herbicidal rating ORYSAT? Entry: CCOC(=O)CN1C(=O)C(CC(=O)OCc2ccccc2)OC1=Nc1cc(-n2c(=O)cc(C(F)(F)F)n(C)c2=O)c(F)cc1Cl (stereo not shown) [Compound 40]
0.0

Quick one: Preemergence herbicidal rating ORYSAT of Cn1c(C(F)(F)F)cc(=O)n(-c2cc(N=C3SCC(=O)N3CC(=O)OCC#N)c(Cl)cc2F)c1=O [Compound 109] ?
2.0
